Cited source for all entries: patent US20170008888A1

This section presents compounds with their documented EC50 values.
system: diseased primary human lung fibroblasts; assay: Cytokine response by primary diseased human lung fibroblasts stimulated with IL-17A or IL-17F; assay type: cell-based; settings: Fibroblast, 48 h, +50 ng/ml IL-17A, read-out: EC50 values (μM), IL-6
# unit: µM | format: bare number

Supply measured EC50 of `CCOc1cc(C(=O)N2CCC(N3CCN(C)CC3)CC2)ccc1Nc1cc2c(cn1)N(C)C(=O)c1occc1N2C` in your reply.
5.69

Supply measured EC50 of `CCOc1cc(C(=O)N2CC[C@@H](N(C)C)C2)ccc1Nc1cc2c(cn1)N(C)C(=O)c1ccccc1N2C` in your reply.
1.16

Supply measured EC50 of `CCOc1cc(C(=O)N2CCC(N3CCN(C)CC3)CC2)ccc1Nc1cc2c(cn1)N(C)C(=O)c1ccccc1N2C` in your reply.
6.98

###

This section presents compounds with their documented inhibition at 10 µM values.
Target: BRD4 bromodomain domain I [BRD4(1)] (Homo sapiens, UniProt O60885)
Construct: BRD4 bromodomain domain I [BRD4(1)]; purchased Cayman Chemicals
Assay: BRD4 bromodomain domain 1 inhibition assay (TR-FRET)
Format: binding
Details: screening concentration 10 μM
Experimental: The inhibitory activity of test compounds on the bromodomain, BRD4 bromodomain domain I [BRD4(1)], were determined via TR-FRET after a slight modification of the manufacturer's protocol (Cayman Chemicals, Ann Arbor, Mich.). Briefly, compounds were diluted to a 20× ([…]) concentration in DMSO. […] The fluorescence was read in a time-resolved format on the Biotec Synergy 2 plate reader by exciting the signal at 340 nm and reading emissions at 620 and 670, using a 100 μs delay and 200 μs read window. […]

| compound | reported.endpoint | assay.result |
| --- | --- | --- |
| CCOc1cc(C(=O)N2CC[C@H](NC3CCN(C)CC3)C2)ccc1Nc1cc2c(cn1)N(C)C(=O)c1ccccc1N2C [Compound T61] | inhibition at 10 µM | > 85% |
| CCOc1cc(C(=O)N2CCC(N3CCCC3)CC2)ccc1Nc1cc2c(cn1)N(C)C(=O)c1ccccc1N2C [Compound 46] | inhibition at 10 µM | > 85% |
| CCOc1cc(C(=O)NCCO)ccc1Nc1cc2c(cn1)N(C)C(=O)c1ccccc1N2C [Compound 66] | inhibition at 10 µM | < 70% |
| CCOc1cc(C(=O)N2C[C@H]3CCN[C@H]3C2)ccc1Nc1cc2c(cn1)N(C)C(=O)c1ccccc1N2C [Compound T5] | inhibition at 10 µM | 70 to 85% |
| CN1C(=O)c2occc2N(C)c2cc(N[C@H]3CC[C@H](N)CC3)ncc21 [Compound 53] | inhibition at 10 µM | 70 to 85% |
| CCOc1cc(C(=O)N2CCN(C3CCN(C)CC3)CC2)ccc1Nc1cc2c(cn1)N(C)C(=O)c1ccccc1N2C [Compound T8] | inhibition at 10 µM | > 85% |

Supply measured inhibition at 10 µM of CCOc1cc(C(N)=O)ccc1Nc1cc2c(cn1)N(C)C(=O)c1ccccc1N2C [Compound 51] in your reply.
< 70%

###

test system: diseased primary human lung fibroblasts; experiment: Cytokine response by primary diseased human lung fibroblasts stimulated with IL-17A or IL-17F; type: cell-based; conditions: Fibroblast, 48 h, +50 ng/ml IL-17F, read-out: EC50 values (μM), MCP-1
This section presents compounds with their documented EC50 values.
# unit: µM | format: bare number

Reference set, count: 2
| substance.smiles | system | EC50 [µM] |
| --- | --- | --- |
| CCOc1cc(C(=O)N2CCC(N3CCN(C)CC3)CC2)ccc1Nc1cc2c(cn1)N(C)C(=O)c1occc1N2C | diseased primary human lung fibroblasts | 1.85 |
| CCOc1cc(C(=O)N2CCC(N3CCN(C)CC3)CC2)ccc1Nc1cc2c(cn1)N(C)C(=O)c1ccccc1N2C | diseased primary human lung fibroblasts | 1.57 |

Now consider a different compound.
Supply measured EC50 of `CCOc1cc(C(=O)N2CC[C@@H](N(C)C)C2)ccc1Nc1cc2c(cn1)N(C)C(=O)c1ccccc1N2C` in your reply.
0.36

###

system: diseased primary human synovial fibroblasts; test: Cytokine response by primary human synovial fibroblasts stimulated with IL-17A, TNF-α or both; assay type: cell-based; settings: Fibroblast, 48 h, +Both IL-17A + TNF-α, read-out: EC50 (μM), IL-8
reported.endpoint: EC50

| substance.smiles | assay.result |
| --- | --- |
| CCOc1cc(C(=O)N2CCC(N3CCN(C)CC3)CC2)ccc1Nc1cc2c(cn1)N(C)C(=O)c1ccccc1N2C | > 10 µM |

Now consider a different molecule.
Supply measured EC50 of `CCOc1cc(C(=O)N2CC[C@@H](N(C)C)C2)ccc1Nc1cc2c(cn1)N(C)C(=O)c1ccccc1N2C` in your reply.
> 10 µM

###

target: ERK5 (Homo sapiens, UniProt Q13164); construct: screened for activity against several kinases in Jurkat cells; endogenous in cells; host or cells: Jurkat cell lysate; assay: Probe-based (AX9989 acyl phosphate ATP probe) kinase profiling in Jurkat lysate: ERK5; type: binding; settings: calculated from percent inhibition of AX9989 labeling and the screening concentration; Jurkat lysate
Sequence (Q13164 whole entry): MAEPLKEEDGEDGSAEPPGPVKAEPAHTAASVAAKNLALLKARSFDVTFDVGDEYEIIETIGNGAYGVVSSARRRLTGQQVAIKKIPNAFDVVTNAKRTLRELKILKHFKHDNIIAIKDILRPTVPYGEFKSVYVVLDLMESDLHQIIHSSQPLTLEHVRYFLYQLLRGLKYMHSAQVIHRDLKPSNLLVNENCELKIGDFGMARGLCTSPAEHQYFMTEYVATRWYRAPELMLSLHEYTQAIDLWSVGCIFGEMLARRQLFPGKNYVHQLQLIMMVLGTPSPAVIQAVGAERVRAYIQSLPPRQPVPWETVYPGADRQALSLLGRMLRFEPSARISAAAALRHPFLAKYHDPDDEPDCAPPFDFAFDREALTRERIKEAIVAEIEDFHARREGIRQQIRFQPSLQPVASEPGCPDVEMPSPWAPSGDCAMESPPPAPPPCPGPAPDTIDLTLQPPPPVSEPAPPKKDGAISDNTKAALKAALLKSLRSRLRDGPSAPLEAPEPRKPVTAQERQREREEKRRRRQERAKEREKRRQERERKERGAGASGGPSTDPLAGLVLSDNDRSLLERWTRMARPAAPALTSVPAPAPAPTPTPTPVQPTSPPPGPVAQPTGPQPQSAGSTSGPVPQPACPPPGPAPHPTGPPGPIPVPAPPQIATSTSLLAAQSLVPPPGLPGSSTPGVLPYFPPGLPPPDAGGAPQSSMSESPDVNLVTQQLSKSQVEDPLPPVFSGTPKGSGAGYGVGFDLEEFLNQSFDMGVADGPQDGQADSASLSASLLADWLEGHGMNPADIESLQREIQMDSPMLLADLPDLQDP
reported.endpoint: IC50

| compound | reported.endpoint | assay.result |
| --- | --- | --- |
| COc1cc(C(=O)N2CCC(N(C)C)C2)ccc1Nc1cc2c(cn1)N(C)C(=O)c1ccccc1N2C (stereo not shown) | IC50 | ≤ 50 nM |
| CCOc1cc(Cl)ccc1Nc1cc2c(cn1)N(C)C(=O)c1ccccc1N2C | IC50 | > 500 nM |
| CCOc1cc(C(=O)N2CCCCC2)ccc1Nc1cc2c(cn1)N(C)C(=O)c1ccccc1N2C | IC50 | 101 to 500 nM |

Now consider a different compound.
Find IC50 for `CCOc1cc(C(=O)N2CC[C@@H](NC)C2)ccc1Nc1cc2c(cn1)N(C)C(=O)c1ccccc1N2C` on ERK5 (Homo sapiens, UniProt Q13164) and write it down.
≤ 50 nM

###

biological target: ERK5 (Homo sapiens); construct: screened for activity against several kinases in Jurkat cells; endogenous in cells; host or cells: Jurkat cell lysate; experiment: Probe-based (AX9989 acyl phosphate ATP probe) kinase profiling in Jurkat lysate: ERK5; type: binding; conditions: screening concentration 0.1 μM; read-out: Kinase inhibition % at indicated screening concentration: ERK5
reported.endpoint: inhibition at 0.1 µM

| compound | system | reported.endpoint | assay.result |
| --- | --- | --- | --- |
| CCOc1cc(C(=O)N2CCN(CCO)CC2)ccc1Nc1cc2c(cn1)N(C)C(=O)c1ccccc1N2C | ERK5 (Homo sapiens) | inhibition at 0.1 µM | 75 to 90% |
| CCOc1cc(C(=O)N2CC[C@@H](N(CC)CC)C2)ccc1Nc1cc2c(cn1)N(C)C(=O)c1occc1N2C | ERK5 (Homo sapiens) | inhibition at 0.1 µM | > 90% |

Supply measured inhibition at 0.1 µM of `CCOc1cc(C(=O)N2CCN(C3CC3)CC2)ccc1Nc1cc2c(cn1)N(C)C(=O)c1ccccc1N2C` in your reply.
50 to 75%

Supply measured inhibition at 0.1 µM of CCOc1cc(C(=O)N2CCC(N)C2)ccc1Nc1cc2c(cn1)N(C)C(=O)c1occc1N2C (stereo not drawn) in your reply.
> 90%

Supply measured inhibition at 0.1 µM of `CCOc1cc(CO)ccc1Nc1cc2c(cn1)N(C)C(=O)c1ccccc1N2C` in your reply.
35 to 50%

Supply measured inhibition at 0.1 µM of `CCOc1cc(C(=O)N2CCNC[C@H]2C)ccc1Nc1cc2c(cn1)N(C)C(=O)c1ccccc1N2C` in your reply.
75 to 90%

Supply measured inhibition at 0.1 µM of `Cc1cc(CN2CC[C@@H](N3CCCC3)C2)ccc1Nc1cc2c(cn1)N(C)C(=O)c1ccccc1N2C` in your reply.
> 90%

Supply measured inhibition at 0.1 µM of `CCOc1cc(C(=O)N2CC[C@@H](N(C)C)C2)ccc1Nc1cc2c(cn1)N(C)C(=O)c1occc1N2C` in your reply.
> 90%

Supply measured inhibition at 0.1 µM of `CCOc1cc(C(=O)N2CC[C@@H](NC)C2)ccc1Nc1cc2c(cn1)N(C)C(=O)c1ccccc1N2C` in your reply.
75 to 90%

Supply measured inhibition at 0.1 µM of `CCOc1cc(C(=O)N2CCC(c3c[nH]cn3)CC2)ccc1Nc1cc2c(cn1)N(C)C(=O)c1ccccc1N2C` in your reply.
35 to 50%

Supply measured inhibition at 0.1 µM of `C=CCN1CCN(C(=O)c2ccc(Nc3cc4c(cn3)N(C)C(=O)c3ccccc3N4C)c(OCC)c2)CC1` in your reply.
75 to 90%

###

System: primary asthmatic human bronchial epithelial cells
Assay: IL-17A- or IL-17F-mediated cytokine response by primary asthmatic human bronchial epithelial cells
Assay type: cell-based
Conditions: Epithelial cell, 48 h, +50 ng/ml IL-17A, 48 h, read-out: EC50 values (μM), IL-8
Excerpt: The virally immortalized, normal human bronchial epithelial cell line BEAS-2B was purchased from ATCC (Manassas, Va.). Primary bronchial epithelial cells isolated from a patient diagnosed with asthma were obtained from Lonza (Allendale, N.J.). […] Supernatant was then collected and analyzed for cytokine concentrations using the Bio-Plex Pro Human Cytokine 17-Plex Panel (Bio-Rad Laboratories, Hercules, Calif.) according to the manufacturer's instructions. […]
This section presents compounds with their documented EC50 values.
# unit: µM | format: bare number

| substance.smiles | EC50 / µM |
| --- | --- |
| CCOc1cc(C(=O)N2CC[C@@H](N(C)C)C2)ccc1Nc1cc2c(cn1)N(C)C(=O)c1ccccc1N2C | 0.15 |
| CCOc1cc(C(=O)N2CCC(N3CCN(C)CC3)CC2)ccc1Nc1cc2c(cn1)N(C)C(=O)c1occc1N2C | 0.63 |

Supply measured EC50 of `CCOc1cc(C(=O)N2CCC(N3CCN(C)CC3)CC2)ccc1Nc1cc2c(cn1)N(C)C(=O)c1ccccc1N2C` in your reply.
0.51
